- system: recombinant human MAO-A (Homo sapiens)
- Construct: purchased Sigma-Aldrich
- Sequence (P21397 whole entry): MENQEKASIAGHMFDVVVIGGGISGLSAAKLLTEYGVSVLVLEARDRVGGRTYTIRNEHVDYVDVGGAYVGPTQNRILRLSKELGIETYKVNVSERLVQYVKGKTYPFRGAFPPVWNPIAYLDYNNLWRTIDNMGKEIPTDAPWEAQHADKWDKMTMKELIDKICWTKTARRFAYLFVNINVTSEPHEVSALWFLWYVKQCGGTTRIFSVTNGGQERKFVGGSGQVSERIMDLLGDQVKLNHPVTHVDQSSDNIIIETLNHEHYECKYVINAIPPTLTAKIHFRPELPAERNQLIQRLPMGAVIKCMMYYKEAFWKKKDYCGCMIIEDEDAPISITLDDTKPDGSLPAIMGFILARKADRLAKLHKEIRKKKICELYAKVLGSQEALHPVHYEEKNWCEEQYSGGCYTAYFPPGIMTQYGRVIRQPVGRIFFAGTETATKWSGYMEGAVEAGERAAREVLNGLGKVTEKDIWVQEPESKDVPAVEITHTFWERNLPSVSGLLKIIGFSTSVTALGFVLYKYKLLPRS
- method_description: Human MAO-A inhibitory assay (kynuramine, fluorescence of 4-hydroxyquinoline)
- Type: biochemical
- condition_info: ratio of Ki values; MAO-A
- Procedure: The crude ethanol extract of A. philoxeroides, together with its constituents, alternanthin (1a), althernanthin B (1b), torosaflavone E (3a), dimethyltorosaflavone D (3b) and chrysoeriol 7-rhamnoside (5) were tested for their inhibitory activity on MAO-A and MAO-B, using the recombinant human MAO-A and MAO-B. The rates of MAO catalysis was determined by measuring the production of 4-hydroxyquinoline by fluorescence spectrophotometry. […]
measured_metric: Si MAO-A (selectivity index between MAO-A and MAO-B)

>  <compound>
O=C(O)/C=C/c1c(O)cc2oc(-c3ccc(O)c(O)c3)cc(=O)c2c1O

>  <result_value>
2.3850

$$$$

1. COc1cc(-c2cc(=O)c3c(O)cc(O[C@@H]4O[C@@H](C)[C@H](O)[C@@H](O)[C@H]4O)cc3o2)ccc1O [Compound 5, chrysoeriol 7-O-rhamnoside]
2. COc1cc(-c2cc(=O)c3c(O)c([C@H]4C[C@H](O)[C@@H](O)[C@@H](C)O4)c(O)cc3o2)ccc1O
3. C[C@H]1O[C@@H](c2c(O)cc3oc(-c4ccc(O)c(O)c4)cc(=O)c3c2O)C[C@H](O)[C@H]1O
4. COc1cc(-c2cc(=O)c3c(O)c(/C=C/C(=O)O)c(O)cc3o2)ccc1O
## Input Given 4 compounds, produce a descending ranking by Si MAO-A (selectivity index between MAO-A and MAO-B). Lab note: final answer is the ordered label list.
## Output 4, 3, 1, 2

* * *

- system: recombinant human MAO-B (Homo sapiens)
- method_description: Human MAO-B inhibitory assay (kynuramine, fluorescence of 4-hydroxyquinoline)
- condition_info: recombinant human MAO-B, kynuramine, pH 7.4, 37 °C, 20 min; mean ± SD
- Description: The crude ethanol extract of A. philoxeroides, together with its constituents, alternanthin (1a), althernanthin B (1b), torosaflavone E (3a), dimethyltorosaflavone D (3b) and chrysoeriol 7-rhamnoside (5) were tested for their inhibitory activity on MAO-A and MAO-B, using the recombinant human MAO-A and MAO-B. The rates of MAO catalysis was determined by measuring the production of 4-hydroxyquinoline by fluorescence spectrophotometry. […]
measured_metric: IC50 (nM)

>  <molecule>
COc1cc(-c2cc(=O)c3c(O)c(/C=C/C(=O)O)c(O)cc3o2)ccc1O

>  <unit_spec>
nM

>  <IC50>
675

$$$$

P. COc1cc(-c2cc(=O)c3c(O)cc(O[C@@H]4O[C@@H](C)[C@H](O)[C@@H](O)[C@H]4O)cc3o2)ccc1O [Compound 5, chrysoeriol 7-O-rhamnoside]
Q. O=C(O)/C=C/c1c(O)cc2oc(-c3ccc(O)c(O)c3)cc(=O)c2c1O
## Input Which gives the smaller IC50 number: P or Q ? Give the label under which the chosen entry appears.
## Output Q

* * *

- system: recombinant human MAO-B (Homo sapiens, UniProt P27338)
- Sequence (P27338 whole entry): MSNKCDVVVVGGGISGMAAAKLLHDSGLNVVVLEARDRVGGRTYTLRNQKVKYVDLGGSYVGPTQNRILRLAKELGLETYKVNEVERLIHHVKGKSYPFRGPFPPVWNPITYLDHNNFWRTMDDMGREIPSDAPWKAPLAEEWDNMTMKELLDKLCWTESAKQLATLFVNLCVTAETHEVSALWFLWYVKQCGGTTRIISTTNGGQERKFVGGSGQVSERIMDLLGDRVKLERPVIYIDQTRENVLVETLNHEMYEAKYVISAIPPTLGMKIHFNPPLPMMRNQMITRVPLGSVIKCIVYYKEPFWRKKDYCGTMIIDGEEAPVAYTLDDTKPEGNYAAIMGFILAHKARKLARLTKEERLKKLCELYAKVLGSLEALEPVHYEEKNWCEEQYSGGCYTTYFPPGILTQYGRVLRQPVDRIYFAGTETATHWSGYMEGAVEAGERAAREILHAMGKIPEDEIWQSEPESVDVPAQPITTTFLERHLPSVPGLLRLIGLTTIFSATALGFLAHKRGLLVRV
- method_description: Human MAO-B inhibitory assay (kynuramine, fluorescence of 4-hydroxyquinoline)
- condition_info: from IC50 by Cheng–Prusoff, Km 22.7 μM
measured_metric: Ki (nM)

I. C[C@H]1O[C@@H](c2c(O)cc3oc(-c4ccc(O)c(O)c4)cc(=O)c3c2O)C[C@H](O)[C@H]1O
II. COc1cc(-c2cc(=O)c3c(O)cc(O[C@@H]4O[C@@H](C)[C@H](O)[C@@H](O)[C@H]4O)cc3o2)ccc1O [Compound 5, chrysoeriol 7-O-rhamnoside]
## Input Which gives the smaller Ki number: I or II ? Give the label under which the chosen entry appears.
## Output I
(I: 0.1 nM, II: 234 nM)

P. COc1cc(-c2cc(=O)c3c(O)c(/C=C/C(=O)O)c(O)cc3o2)ccc1O
Q. COc1cc(-c2cc(=O)c3c(O)c([C@H]4C[C@H](O)[C@@H](O)[C@@H](C)O4)c(O)cc3o2)ccc1O
R. O=C(O)/C=C/c1c(O)cc2oc(-c3ccc(O)c(O)c3)cc(=O)c2c1O
## Input Endpoint returns the given compounds ordered by ascending Ki. Lab note: final answer is the ordered label list.
## Output Q, R, P
